target: MAPK14 (human) (UniProt Q16539); test: Inhibition of MAPK14 Kinase Activity by PHAS-I Assay; details: concentration not given here
Sequence (Q16539 whole entry, looked up): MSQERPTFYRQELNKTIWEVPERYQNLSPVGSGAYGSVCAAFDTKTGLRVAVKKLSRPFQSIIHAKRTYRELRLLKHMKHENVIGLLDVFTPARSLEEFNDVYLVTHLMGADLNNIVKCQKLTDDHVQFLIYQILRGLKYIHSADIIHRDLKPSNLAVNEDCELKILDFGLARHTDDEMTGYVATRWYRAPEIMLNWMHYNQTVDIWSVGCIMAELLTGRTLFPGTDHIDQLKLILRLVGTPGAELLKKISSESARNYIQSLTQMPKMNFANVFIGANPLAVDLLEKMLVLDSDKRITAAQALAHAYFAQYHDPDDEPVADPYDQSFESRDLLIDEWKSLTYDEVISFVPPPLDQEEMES
readout_name: inhibition

>  <molecule>
O=C(NCCCc1[nH]nc(-c2ccc(F)cc2)c1-c1ccncc1)NCc1ccccc1

>  <assay_value>
82%

$$$$
>  <molecule>
CC(C)NC(=O)NCCCc1[nH]nc(-c2ccc(F)cc2)c1-c1ccncc1

>  <assay_value>
81%

$$$$
>  <molecule>
O=C(NCCCc1[nH]nc(-c2ccc(F)cc2)c1-c1ccncc1)Nc1cccc(F)c1

>  <assay_value>
80%

$$$$
>  <molecule>
C[C@H](NC(=O)NCCc1[nH]nc(-c2ccc(F)cc2)c1-c1ccncc1)c1ccccc1

>  <assay_value>
79%

$$$$
>  <molecule>
O=C(NCCCc1[nH]nc(-c2ccc(F)cc2)c1-c1ccncc1)c1ccno1

>  <assay_value>
80%

$$$$
>  <molecule>
COC(=O)C(NC(=O)Cn1nc(-c2ccc(F)cc2)c(-c2ccncc2)c1C)C(C)C (configuration not stated)

>  <assay_value>
82%

$$$$
>  <molecule>
Cc1c(-c2ccncc2)c(-c2ccc(F)cc2)nn1CC(=O)N1CCSC1c1ccco1 (configuration not stated)

>  <assay_value>
78%

$$$$

====

target: MAPK14 (human); test: Inhibition of LPS Stimulated TNF Production by U937 Cells
Response field label takes Criterion met when IC50 is strictly below 600 nM and Criterion not met in all other cases.

>  <molecule>
CS(=O)(=O)c1ccc(CNC(=O)NCCCc2[nH]nc(-c3ccc(F)cc3)c2-c2ccncc2)cc1

>  <test_target>
MAPK14 (human)

>  <class_assignment>
Criterion not met

$$$$
>  <molecule>
COC(=O)CNc1n[nH]c(-c2ccc(F)cc2)c1-c1ccncc1

>  <test_target>
MAPK14 (human)

>  <class_assignment>
Criterion not met

$$$$
>  <molecule>
CNC(=O)CC[C@H](NC(=O)COC)c1[nH]nc(-c2ccc(F)cc2)c1-c1ccncc1

>  <test_target>
MAPK14 (human)

>  <class_assignment>
Criterion not met

$$$$
>  <molecule>
CCc1n[nH]c(-c2ccccc2)c1-c1ccncc1

>  <test_target>
MAPK14 (human)

>  <class_assignment>
Criterion met

$$$$
>  <molecule>
COc1ccc(CC(=O)NCc2[nH]nc(-c3ccc(F)cc3)c2-c2ccncc2)cc1

>  <test_target>
MAPK14 (human)

>  <class_assignment>
Criterion not met

$$$$
>  <molecule>
CNC(=O)CC[C@H](NS(=O)(=O)Cc1ccccc1)c1[nH]nc(-c2ccc(F)cc2)c1-c1ccncc1

>  <test_target>
MAPK14 (human)

>  <class_assignment>
Criterion not met

$$$$
>  <molecule>
CNC(=O)CC[C@H](NC(=O)c1ccno1)c1[nH]nc(-c2ccc(F)cc2)c1-c1ccncc1

>  <test_target>
MAPK14 (human)

>  <class_assignment>
Criterion not met

$$$$
>  <molecule>
COc1cc(NC(=O)CCNC(=O)Cn2nc(-c3ccc(F)cc3)c(-c3ccncc3)c2C)cc2ccccc12

>  <test_target>
MAPK14 (human)

>  <class_assignment>
Criterion not met

$$$$
>  <molecule>
CC(C)C(=O)NCc1[nH]nc(-c2ccc(F)cc2)c1-c1ccncc1

>  <test_target>
MAPK14 (human)

>  <class_assignment>
Criterion not met

$$$$
>  <molecule>
CCCCCCCCOc1cccc(NC(=O)Cn2nc(-c3ccc(F)cc3)c(-c3ccncc3)c2C)c1

>  <test_target>
MAPK14 (human)

>  <class_assignment>
Criterion not met

$$$$
>  <molecule>
Cc1cccc(-c2n[nH]cc2-c2ccnc(C)c2)c1

>  <test_target>
MAPK14 (human)

>  <class_assignment>
Criterion met

$$$$
>  <molecule>
O=S(=O)(NCc1[nH]nc(-c2ccc(F)cc2)c1-c1ccncc1)C(F)(F)F

>  <test_target>
MAPK14 (human)

>  <class_assignment>
Criterion not met

$$$$
>  <molecule>
CCCc1n[nH]c(-c2cccc(C)c2)c1-c1ccncc1

>  <test_target>
MAPK14 (human)

>  <class_assignment>
Criterion met

$$$$
>  <molecule>
N/C(=C(\N)S(=O)(=O)NCc1[nH]nc(-c2ccc(F)cc2)c1-c1ccncc1)c1ccccc1

>  <test_target>
MAPK14 (human)

>  <class_assignment>
Criterion not met

$$$$
>  <molecule>
CC(Nc1cc(-c2c[nH]nc2-c2ccc(F)cc2)ccn1)c1ccc(F)cc1 (stereo not drawn)

>  <test_target>
MAPK14 (human)

>  <class_assignment>
Criterion met

$$$$
>  <molecule>
O=S(=O)(Cc1ccccc1)NCc1[nH]nc(-c2ccc(F)cc2)c1-c1ccncc1

>  <test_target>
MAPK14 (human)

>  <class_assignment>
Criterion met

$$$$
>  <molecule>
CN(C)CCn1cc(-c2ccnc(NCc3ccc(F)cc3)c2)c(-c2ccc(F)cc2)n1

>  <test_target>
MAPK14 (human)

>  <class_assignment>
Criterion not met

$$$$
>  <molecule>
O=S(=O)(c1ccccc1F)N1CCC(c2[nH]nc(-c3ccc(F)cc3)c2-c2ccncc2)CC1

>  <test_target>
MAPK14 (human)

>  <class_assignment>
Criterion not met

$$$$
>  <molecule>
O=C(N[C@H](Cc1ccccc1)c1[nH]nc(-c2ccc(F)cc2)c1-c1ccncc1)c1cccc(Br)c1

>  <test_target>
MAPK14 (human)

>  <class_assignment>
Criterion not met

$$$$
>  <molecule>
Cn1nc(-c2ccc(F)cc2)c(-c2ccncc2)c1C(O)c1ccccc1 (stereo not drawn)

>  <test_target>
MAPK14 (human)

>  <class_assignment>
Criterion met

$$$$
>  <molecule>
C[C@@H](NC(=O)NCCc1[nH]nc(-c2ccc(F)cc2)c1-c1ccncc1)c1ccccc1

>  <test_target>
MAPK14 (human)

>  <class_assignment>
Criterion not met

$$$$
>  <molecule>
O=C(NCCc1[nH]nc(-c2ccc(F)cc2)c1-c1ccncc1)c1cccc(C(F)(F)F)c1F

>  <test_target>
MAPK14 (human)

>  <class_assignment>
Criterion not met

$$$$
>  <molecule>
O=C(N[C@H](Cc1ccccc1)c1[nH]nc(-c2ccc(F)cc2)c1-c1ccncc1)c1ccccc1C(F)(F)F

>  <test_target>
MAPK14 (human)

>  <class_assignment>
Criterion not met

$$$$

Origin of values: the Kinase Knowledgebase extract (Sharma et al. 2016)
